Listed here: items and their measured cytotoxicity.
# assayNotes: cytotoxicity in HPDE-C7 cells, cell-based, fluorescence, HTS (AID 430);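 further: cells exposed to compound for 48 hours before viability readout; 0% = vehicle and 100% = reference cytotoxic drug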
# measurementContext: HPDE-C7 pancreatic duct cells viability, at 10 µM, hits give high values
The campaign covered roughly 63,000 compounds. About 1,100 (1.7%) were called active. The full list was thinned out, with actives kept by preference. Potency and affinity values are given separately.
reportedEndpoint: cytotoxicity (%)

compound	recordedValue
O=C(O)C1CCN(c2nc(-c3ccccc3)nc3c2oc2ccccc23)CC1	23.4
CCN(CC)c1ccc2c(C)c(-c3ccc(N)cc3)c(=O)oc2c1	11
CCCc1ccc(OCC(=O)O)cc1	3
Cc1ccc(Cl)cc1N1CCN(Cc2nnnn2C2CCCCC2)CC1	-16
CCN(CC)S(=O)(=O)c1ccc(Cl)c(C(=O)Nc2nncs2)c1	2.1
Cc1nn(-c2nc3ccccc3s2)c(N)c1-c1ccccc1	6.1
O=c1cc(-c2ccccc2)[nH]c2ccccc12	60.9
CCCc1ccc(Oc2cn[nH]c2-c2ccc(O)c(C)c2O)cc1	103
CC(C)n1c(Nn2cnnc2)nc2ccccc21	3.1
CCNc1ccc2c(Cl)cc(=O)oc2c1	-2
O=C(CN(Cc1ccco1)C(=O)CNS(=O)(=O)c1ccccc1)NCc1ccc(F)cc1	-1.3
CC(=NC1CCCC1)c1c(C)[nH]n(-c2nc3ccccc3s2)c1=O	-9.3
CCOC(=O)C1CCN(C(=O)CNS(=O)(=O)c2cccs2)CC1	-14.6
O=S(=O)(c1ccc(Br)s1)N1CCN(c2ccccc2)CC1	-10.8
O=c1[nH]c2ccc(Cl)cc2c(-c2ccccc2)c1N1CCOCC1	0.9
CCNc1nc(CC)nc2c1oc1ccccc12	-12.6
COc1ccc(-c2cc(=O)n(-c3nc4ccccc4[nH]3)[nH]2)cc1	35
N=c1c2c(-c3ccccc3)c(-c3ccccc3)oc2ncn1CCN1CCOCC1	29.3
O=C(CSc1nnc(-c2ccc(Cl)cc2)n1Cc1ccco1)c1cccs1	-6.2
O=C(c1ccco1)N1CCN(c2c(-c3ccccc3)c3cc(Cl)ccc3[nH]c2=O)CC1	83.6
CCN(CC)S(=O)(=O)c1cccc(C(=O)Nc2nncs2)c1	-14.1
CCCCC(=O)Nc1nc(C)c(C(C)=O)s1	-0.6
Cc1nc(Nc2ccncc2)c2oc3ccccc3c2n1	-28.9
O=C(CCCOc1ccc(Cl)cc1)N1CCOCC1	-10.1
COc1ccc(-c2oc3ncn4nc(Cc5ccccc5)nc4c3c2-c2ccc(OC)cc2)cc1	62.3
CC(=O)Nc1cnc2ccccc2n1	-6.4
CCN(CC)CCN1C(=O)C(=O)/C(=C(/O)c2cnn(-c3ccccc3)c2C)C1c1cccnc1 (stereo unspecified)	0.2
CCc1nc(Nc2ccncc2)c2oc3ccccc3c2n1	67.4
COc1ccc(-c2oc3ncn(CCN4CCOCC4)c(=N)c3c2-c2ccc(OC)cc2)cc1	16
Cc1ccc(Cl)cc1N1CCN(C(=O)c2cc3c(=O)n(C)c4ccccc4c3n2C)CC1	59.5
CCOC(=O)Cc1c(C)c2ccc(N(CC)CC)cc2oc1=O	-17.8
N#CC1=C(SCC(=O)c2ccccc2)NC2=C(C(=O)CCC2)C1c1ccco1 (stereo unspecified)	54.3
O=c1cc(-c2ccccc2)c2ccccc2[nH]1	-20.9
CCn1c2ccccc2c2cc(C3C(C#N)=C(C)NC(C)=C3C#N)ccc21	-2.6
CN1CCN(/C=C2\SC(=S)NC2=O)CC1	-23.4
Cc1cccc(NC(=O)c2cc3c(n(-c4ccccc4)c2=O)CCCC3=O)n1	9.4
COc1ccc(-n2c3c(cc(C(=O)Nc4ccc5c(c4)C(=O)NC5=O)c2=O)C(=O)CCC3)cc1	58.8
O=c1cc(-c2ccccc2)[nH]c2nc3ccccc3n12	34.3
O=C(O)c1cccc(S(=O)(=O)Nc2ccc3oc(=O)sc3c2)c1	1.3
COc1ccccc1S(=O)(=O)Cc1ccc(C(=O)NC(C)c2ccc3c(c2)OCCO3)o1 (stereo unspecified)	-4.2
O=C(CN1CCOc2ccccc21)N1CCCC1	4.1
CCc1nnc(NC(=O)NCN2C(=O)C3C4C=CC(C4)C3C2=O)s1 (stereo unspecified)	3
COc1ccc(Nc2nc(N)nc(CSc3n[nH]c(-c4ccccc4)n3)n2)cc1	-20.3
O=C(CN(Cc1ccco1)C(=O)CNS(=O)(=O)c1ccc(Cl)cc1)NCc1ccc(F)cc1	70
CCN(C(=O)c1coc(=O)c2ccccc12)c1cc(OC)ccc1OC	-6.4
O=C(Nc1ccc2c(c1)OCO2)C1CC(c2ccccc2Cl)=NO1 (stereo unspecified)	5.2
